Assignment: determine reported IC50 for the given compounds.
# Tested system: cGMP-specific 3',5'-cyclic phosphodiesterase (Canis lupus familiaris, UniProt O77746)
# Assay info: Inhibitory activity against phosphodiesterase 5 (PDE V), isolated from lung
// units = nM; emit number, no label

Per the records, this compound ( `COC(=O)c1c(C(=O)N2CCN(CCO)CC2)cc2cc(OC)c(OC)cc2c1-c1cc(Cl)c(OC)c(OC)c1` ) has IC50 equal to 49

Per the records, this compound ( `O=C(O)C1CCN(c2nc(NCc3ccc4c(c3)OCO4)c3cc(Cl)ccc3n2)CC1` ) has IC50 equal to 1.6

Per the records, this compound ( `COC(=O)c1c(C(=O)N2CCCCC2)cc2cc(OC)c(OC)cc2c1-c1cc(OC)c(OC)c(OC)c1` ) has IC50 equal to 2100

Per the records, this compound ( `COC(=O)c1c(C(=O)N2CCN(CCO)CC2)cc2cc(OC)c(OC)cc2c1-c1ccc(Cl)c(Cl)c1` ) has IC50 equal to 53000

Per the records, this compound ( `COC(=O)c1c(C(=O)N2CCN(CCO)CC2)cc2ccc(Cl)cc2c1-c1cc(Br)c(OC)c(OC)c1` ) has IC50 equal to 21

Per the records, this compound ( `COC(=O)c1c(C(=O)N2CCOCC2)cc2cc(OC)c(OC)cc2c1-c1cc(OC)c(OC)c(OC)c1` ) has IC50 equal to 390

Per the records, this compound ( `COC(=O)c1c(C(=O)N2CCC(=O)CC2)cc2cc(OC)c(OC)cc2c1-c1cc(OC)c(OC)c(OC)c1` ) has IC50 equal to 500

Per the records, this compound ( `COC(=O)c1c(C(=O)N2CCN(CCO)CC2)cc2ccccc2c1-c1cc(Br)c(OC)c(OC)c1` ) has IC50 equal to 25

Per the records, this compound ( `COc1cc2cc3c(c(-c4cc(OC)c(OC)c(OC)c4)c2cc1OC)COC3=O` ) has IC50 equal to 68

Per the records, this compound ( `CCOc1cc2cc(C(=O)N3CCN(CCO)CC3)c(C(=O)OC)c(-c3cc(Br)c(OC)c(OC)c3)c2cc1OC` ) has IC50 equal to 17

Per the records, this compound ( `COC(=O)c1c(C(=O)N2CCN(CCO)CC2)cc2cc(OC)c(OC)cc2c1-c1cc(Br)c(OC)c(OC)c1` ) has IC50 equal to 24

Per the records, this compound ( `COc1cc2cc(N)c(CO)c(-c3cc(OC)c(OC)c(OC)c3)c2cc1OC` ) has IC50 equal to 13000

Per the records, this compound ( `COC(=O)c1c(C(=O)N2CCN(CCO)CC2)cc2cc(OC)c(OC)cc2c1-c1cc(OC)c(OC)c(OC)c1` ) has IC50 equal to 94

Per the records, this compound ( `COC(=O)c1c(CN2CCN(CCO)CC2)cc2cc(OC)c(OC)cc2c1-c1cc(OC)c(OC)c(OC)c1` ) has IC50 equal to 2400

====

# Tested system: Phosphodiesterase 1 (Canis familiaris)
# Assay info: Inhibitory activity against phosphodiesterase 1 (PDE I), isolated from cardiac ventricle
API: label(entry) gives met if the entry's IC50 is strictly smaller than 20 µM; on equality or larger values it gives not met.

(Q) Answer whether the compound `COC(=O)c1c(C(=O)N2CCN(CCO)CC2)cc2cc(OC)c(OC)cc2c1-c1cccs1` has IC50 strictly less than 20 µM
(A) not met

(Q) Answer whether the compound `COC(=O)c1c(C(=O)N2CCN(CCO)CC2)cc2cc(OC)c(OC)cc2c1-c1cc(Br)c(OC)c(OC)c1` has IC50 strictly less than 20 µM
(A) met

(Q) Answer whether the compound `COC(=O)c1c(C(=O)N2CCN(CCO)CC2)cc2ccc(C)cc2c1-c1cc(Br)c(OC)c(OC)c1` has IC50 strictly less than 20 µM
(A) met

(Q) Answer whether the compound `COc1cc2cc(CO)c(CO)c(-c3cc(OC)c(OC)c(OC)c3)c2cc1OC` has IC50 strictly less than 20 µM
(A) met

(Q) Answer whether the compound `CCOC(=O)C1CCN(C(=O)c2cc3cc(OC)c(OC)cc3c(-c3cc(OC)c(OC)c(OC)c3)c2C(=O)OC)CC1` has IC50 strictly less than 20 µM
(A) not met

(Q) Answer whether the compound `COC(=O)c1c(C(=O)N2CCN(CCO)CC2)cc2cc(OC)c(OC)cc2c1-c1ccc2c(c1)OCO2` has IC50 strictly less than 20 µM
(A) not met

(Q) Answer whether the compound `COC(=O)c1c(C(=O)N2CCN(CCO)CC2)cc2cc(OC)c(OC)cc2c1-c1cc(OC)c(OC)c(OC)c1` has IC50 strictly less than 20 µM
(A) not met

(Q) Answer whether the compound `COc1cc2cc(N)c(CO)c(-c3cc(OC)c(OC)c(OC)c3)c2cc1OC` has IC50 strictly less than 20 µM
(A) met

(Q) Answer whether the compound `COC(=O)c1c(C(=O)N2CCN(C)CC2)cc2cc(OC)c(OC)cc2c1-c1cc(OC)c(OC)c(OC)c1` has IC50 strictly less than 20 µM
(A) not met

(Q) Answer whether the compound `COC(=O)c1c(C(=O)N2CCN(CCO)CC2)cc2cc(OC)c(OC)cc2c1-c1cc(Cl)cc(Cl)c1` has IC50 strictly less than 20 µM
(A) not met

(Q) Answer whether the compound `COc1cc2cc(C(=O)N3CCN(CCO)CC3)c(CO)c(-c3cc(OC)c(OC)c(OC)c3)c2cc1OC` has IC50 strictly less than 20 µM
(A) not met

(Q) Answer whether the compound `COC(=O)c1c(C(=O)N2CCN(CCO)CC2)cc2cc(OC)c(OC)cc2c1-c1ccc(Cl)c(Cl)c1` has IC50 strictly less than 20 µM
(A) not met

(Q) Answer whether the compound `COC(=O)c1c(C(=O)N2CCC(CO)CC2)cc2cc(OC)c(OC)cc2c1-c1cc(OC)c(OC)c(OC)c1` has IC50 strictly less than 20 µM
(A) not met

(Q) Answer whether the compound `COC(=O)c1c(C(=O)N2CCC(=O)CC2)cc2cc(OC)c(OC)cc2c1-c1cc(OC)c(OC)c(OC)c1` has IC50 strictly less than 20 µM
(A) not met

(Q) Answer whether the compound `COc1cc2cc3c(c(-c4cc(OC)c(OC)c(OC)c4)c2cc1OC)C(=O)N(C)C3=O` has IC50 strictly less than 20 µM
(A) not met

(Q) Answer whether the compound `COC(=O)c1c(C(=O)N2CCN(CCO)CC2)cc2cc(OC)c(OC)c(OC)c2c1-c1cc(Br)c(OC)c(OC)c1` has IC50 strictly less than 20 µM
(A) not met

(Q) Answer whether the compound `COC(=O)c1c(C(=O)N2CCN(CCO)CC2)cc2ccc(Cl)cc2c1-c1cc(Br)c(OC)c(OC)c1` has IC50 strictly less than 20 µM
(A) met

====

# Tested system: cGMP-specific 3',5'-cyclic phosphodiesterase (Canis lupus familiaris, UniProt O77746)
# Assay info: Inhibitory activity against phosphodiesterase 5 (PDE V), isolated from lung
pIC50: −log10 of the molar value.
Assignment: determine reported pIC50 for the given compounds.

So the reported pIC50 for `COC(=O)c1c(C(=O)N2CCN(CCO)CC2)cc2cc(OC)c(OC)cc2c1-c1cccs1` , on cGMP-specific 3',5'-cyclic phosphodiesterase (Canis lupus familiaris, UniProt O77746), turned out to be < 4.00

So the reported pIC50 for `COC(=O)c1c(C(N)=O)cc2cc(OC)c(OC)cc2c1-c1cc(OC)c(OC)c(OC)c1` , on cGMP-specific 3',5'-cyclic phosphodiesterase (Canis lupus familiaris, UniProt O77746), turned out to be < 4.00

So the reported pIC50 for `COC(=O)c1c(C(=O)N2CCN(CCO)CC2)cc2cc(OC)c(OC)cc2c1/C=C/c1cc(OC)c(OC)c(OC)c1` , on cGMP-specific 3',5'-cyclic phosphodiesterase (Canis lupus familiaris, UniProt O77746), turned out to be < 4.00

So the reported pIC50 for `COC(=O)c1c(C(=O)N2CCC(CO)CC2)cc2cc(OC)c(OC)cc2c1-c1cc(OC)c(OC)c(OC)c1` , on cGMP-specific 3',5'-cyclic phosphodiesterase (Canis lupus familiaris, UniProt O77746), turned out to be 6.49

====

# Tested system: Phosphodiesterase 3 (Canis familiaris)
# Assay info: Inhibitory activity against phosphodiesterase 3 (PDE 3) isolated from cardiac ventricle
Assay endpoint: IC50

Per the records, this molecule ( `COC(=O)c1c(C(=O)N2CCC(CO)CC2)cc2cc(OC)c(OC)cc2c1-c1cc(OC)c(OC)c(OC)c1` ) has IC50 equal to > 100 µM

Per the records, this molecule ( `COC(=O)c1c(C(=O)N2CCN(CCO)CC2)cc2cc(OC)c(OC)cc2c1-c1ccc2c(c1)OCO2` ) has IC50 equal to > 100 µM

Per the records, this molecule ( `COC(=O)c1c(C(=O)N2CCN(CCO)CC2)cc2ccc(Cl)cc2c1-c1cc(Br)c(OC)c(OC)c1` ) has IC50 equal to > 100 µM

Per the records, this molecule ( `COc1cc2cc(CO)c(CO)c(-c3cc(OC)c(OC)c(OC)c3)c2cc1OC` ) has IC50 equal to 0.88 µM

Per the records, this molecule ( `COc1cc2cc3c(c(-c4cc(OC)c(OC)c(OC)c4)c2cc1OC)COC3=O` ) has IC50 equal to 0.84 µM

Per the records, this molecule ( `COC(=O)c1c(C(=O)N2CCN(CCO)CC2)cc2ccccc2c1-c1cc(Br)c(OC)c(OC)c1` ) has IC50 equal to > 100 µM

Per the records, this molecule ( `COC(=O)c1c(C(=O)N2CCN(CCO)CC2)cc2cc(OC)c(OC)cc2c1-c1cccs1` ) has IC50 equal to > 100 µM

Per the records, this molecule ( `COC(=O)c1c(C(=O)N2CCN(CCO)CC2)cc2cc(OC)c(OC)cc2c1-c1cc(Cl)c(OC)c(OC)c1` ) has IC50 equal to > 100 µM

Per the records, this molecule ( `COC(=O)c1cc2cc(OC)c(OC)cc2c(-c2cc(OC)c(OC)c(OC)c2)c1C(=O)OC` ) has IC50 equal to > 100 µM
